Target: recombinant PRL-3 (Homo sapiens, UniProt O75365)
Construct: 6xHis (N, cleaved yes); made in house; host or cells: E. coli One Shot BL21 Star
Sequence (O75365 whole entry): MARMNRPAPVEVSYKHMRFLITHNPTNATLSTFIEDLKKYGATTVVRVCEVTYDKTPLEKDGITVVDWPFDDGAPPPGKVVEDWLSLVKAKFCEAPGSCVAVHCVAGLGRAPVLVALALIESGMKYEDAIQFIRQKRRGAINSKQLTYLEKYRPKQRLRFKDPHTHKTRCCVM
Assay: In vitro phosphatase assay (DiFMUP hydrolysis), PRL-3; further: test concentration or dose not given here
Format: biochemical
Settings: FDA-approved drug screen; compared to DMSO
Counter-ions that a name gives are not always drawn.
Known % Phosphatase Activity (compared to DMSO) PRL-3 of a selection of compounds
Respond numerically; units are % and should not be typed.

Solved entries:
O=C(O)CCCN1CCC(O[C@@H](c2ccc(Cl)cc2)c2ccccn2)CC1.O=S(=O)(O)c1ccccc1 [Bepotastine Besilate] = 98
COc1c(C)c2c(c(O)c1C/C=C(\C)CCC(=O)O)C(=O)OC2 [Mycophenolic acid] = 85
Nc1ccc(S(=O)(=O)c2ccc(N)cc2)cc1 [Dapson] = 75

Would you kindly share the measured % Phosphatase Activity (compared to DMSO) PRL-3 for CN(C)CCN1C(=O)c2cccc3cc(N)cc(c23)C1=O [Amonafide] ?
72

Quick one: % Phosphatase Activity (compared to DMSO) PRL-3 of Cc1ccc(S(=O)(=O)Nc2nc3ccccc3nc2Nc2ccc3nsnc3c2)cc1 [Pilaralisib (XL147)] ?
98

Name the reported % Phosphatase Activity (compared to DMSO) PRL-3 value associated with the compound CNC[C@H](O)[C@@H](O)[C@H](O)[C@H](O)CO.Cc1c(Nc2ncccc2C(=O)O)cccc1C(F)(F)F [Flunixin Meglumin]
80

Looking for the measured % Phosphatase Activity (compared to DMSO) PRL-3 of CN(C)[C@@H]1C(O)=C(C(N)=O)C(=O)[C@@]2(O)C(O)=C3C(=O)c4c(O)ccc(Cl)c4[C@@](C)(O)[C@H]3C[C@@H]12 [Chlortetracycline HCl] , can you help?
77

Name the reported % Phosphatase Activity (compared to DMSO) PRL-3 value associated with the compound CCOC(=O)c1ccc(O)cc1 [Ethylparaben]
92
